# experimentNotes: Pharmacokinetics of the metabolite produced in vivo after administration of 7.5-60 mg Compound A
# conditionParameters: human, day 15 of once a day administration of about 60 mg of Compound A, read-out: Ctrough
experimentalReadout: concentration at 15 day (µg/mL)
Number only, in µg/mL; omit the unit.

Request: Given the entry CC(C)(O)c1ccc(-c2cnc3c(n2)N([C@H]2CC[C@H](O)CC2)C(=O)CN3)cn1 [O-Desmethyl metabolite] , report its measured concentration at 15 day.
Response: 1.47

====

# experimentNotes: Pharmacokinetics of the metabolite produced in vivo after administration of 7.5-60 mg Compound A
# conditionParameters: human, 7.5 mg, on day (number not given) of once a day administration of about 7.5 mg of Compound A, read-out: AUC0-24
experimentalReadout: AUC(0-t)

Request: Given the entry CC(C)(O)c1ccc(-c2cnc3c(n2)N([C@H]2CC[C@H](O)CC2)C(=O)CN3)cn1 [O-Desmethyl metabolite] , report its measured AUC(0-t).
Response: 6400 ng·h/mL

====

# experimentNotes: Phase 1 food effect study (Part 2), single 20-mg oral dose of Compound A tablet, fed vs fasted
# Type: in vivo, human
# conditionParameters: male, human, plasma, po, 20 mg, Fed (n = 11, high fat meal), single 20-mg oral dose of Compound A tablet; geometric mean
Give Cmax for every item shown.
Number plus unit, in that order.

Request: Given the entry CC(C)(O)c1ccc(-c2cnc3c(n2)N([C@H]2CC[C@H](O)CC2)C(=O)CN3)cn1 [O-Desmethyl metabolite] , report its measured Cmax.
Response: 364 ng/mL

Request: Now try `CO[C@H]1CC[C@H](N2C(=O)CNc3ncc(-c4ccc(C(C)(C)O)nc4)nc32)CC1` .
Response: 156 ng/mL

====

# experimentNotes: Pharmacokinetics of the metabolite produced in vivo after administration of 7.5-60 mg Compound A
# conditionParameters: human, 7.5 mg, on day (number not given) of once a day administration of about 7.5 mg of Compound A
experimentalReadout: Tmax (h)
Number only, in h; omit the unit.

Request: Given the entry CC(C)(O)c1ccc(-c2cnc3c(n2)N([C@H]2CC[C@H](O)CC2)C(=O)CN3)cn1 [O-Desmethyl metabolite] , report its measured Tmax.
Response: 2

====

# experimentNotes: Pharmacokinetics of the metabolite produced in vivo after administration of 7.5-60 mg Compound A
# conditionParameters: human, 7.5 mg, day 1 of administration of about 7.5 mg of Compound A
experimentalReadout: Tmax

Request: Given the entry CC(C)(O)c1ccc(-c2cnc3c(n2)N([C@H]2CC[C@H](O)CC2)C(=O)CN3)cn1 [O-Desmethyl metabolite] , report its measured Tmax.
Response: 8 h

====

# experimentNotes: Phase 1 crossover pharmacokinetic study of tablet and capsule formulations, single oral dose
# Format: in vivo, human
# conditionParameters: male, human; Treatment A: one 20-mg Compound A API-in-capsule, oral, fasted, healthy adult males, n = 18; plasma; median
Give Tmax for every item shown.
Number only, in h; omit the unit.

Request: Given the entry `CO[C@H]1CC[C@H](N2C(=O)CNc3ncc(-c4ccc(C(C)(C)O)nc4)nc32)CC1` , report its measured Tmax.
Response: 1.5

Request: Now try CC(C)(O)c1ccc(-c2cnc3c(n2)N([C@H]2CC[C@H](O)CC2)C(=O)CN3)cn1 [O-Desmethyl metabolite] .
Response: 3

====

Give AUC(0-t) for every item shown.
# experimentNotes: Phase 1 food effect study (Part 2), single 20-mg oral dose of Compound A tablet, fed vs fasted
# Assay type: in vivo, human
# conditionParameters: male, human, plasma, po, 20 mg, Fasted (n = 11), single 20-mg oral dose of Compound A tablet; geometric mean; read-out: AUC0-24
Number only, in ng·h/mL; omit the unit.

Request: Given the entry `CO[C@H]1CC[C@H](N2C(=O)CNc3ncc(-c4ccc(C(C)(C)O)nc4)nc32)CC1` , report its measured AUC(0-t).
Response: 955

Request: Now try CC(C)(O)c1ccc(-c2cnc3c(n2)N([C@H]2CC[C@H](O)CC2)C(=O)CN3)cn1 [O-Desmethyl metabolite] .
Response: 6400

====

# experimentNotes: Pharmacokinetics of the metabolite produced in vivo after administration of 7.5-60 mg Compound A
# conditionParameters: human, 30 mg, day 1 of administration of about 30 mg of Compound A
experimentalReadout: half-life (h)
Number only, in h; omit the unit.

Request: Given the entry CC(C)(O)c1ccc(-c2cnc3c(n2)N([C@H]2CC[C@H](O)CC2)C(=O)CN3)cn1 [O-Desmethyl metabolite] , report its measured half-life.
Response: 21

====

# experimentNotes: Pharmacokinetics of the metabolite produced in vivo after administration of 7.5-60 mg Compound A
# conditionParameters: human, 30 mg, day 1 of administration of about 30 mg of Compound A, read-out: AUC0-24
experimentalReadout: AUC(0-t) (ng·h/mL)
Number only, in ng·h/mL; omit the unit.

Request: Given the entry CC(C)(O)c1ccc(-c2cnc3c(n2)N([C@H]2CC[C@H](O)CC2)C(=O)CN3)cn1 [O-Desmethyl metabolite] , report its measured AUC(0-t).
Response: 13300

====

# experimentNotes: Phase 1 crossover pharmacokinetic study of tablet and capsule formulations, single oral dose
# Type: in vivo, human
# conditionParameters: male, human, plasma, oral; upon administration of about 20 mg of Compound A (protocol of Section 6.5.1); read-out: AUC0-24
experimentalReadout: AUC(0-t) (ng·h/mL)
Number only, in ng·h/mL; omit the unit.

Request: Given the entry CC(C)(O)c1ccc(-c2cnc3c(n2)N([C@H]2CC[C@H](O)CC2)C(=O)CN3)cn1 [O-Desmethyl metabolite] , report its measured AUC(0-t).
Response: 7480

====

# experimentNotes: Pharmacokinetics of the metabolite produced in vivo after administration of 7.5-60 mg Compound A
# conditionParameters: human, 30 mg, day 15 of once a day administration of about 30 mg of Compound A, read-out: AUC0-24
experimentalReadout: AUC(0-t)

Request: Given the entry CC(C)(O)c1ccc(-c2cnc3c(n2)N([C@H]2CC[C@H](O)CC2)C(=O)CN3)cn1 [O-Desmethyl metabolite] , report its measured AUC(0-t).
Response: 29400 ng·h/mL

====

# experimentNotes: Pharmacokinetics of the metabolite produced in vivo after administration of 7.5-60 mg Compound A
# conditionParameters: human, 45 mg, day 1 of administration of about 45 mg of Compound A
experimentalReadout: half-life (h)
Number only, in h; omit the unit.

Request: Given the entry CC(C)(O)c1ccc(-c2cnc3c(n2)N([C@H]2CC[C@H](O)CC2)C(=O)CN3)cn1 [O-Desmethyl metabolite] , report its measured half-life.
Response: 17

====

# experimentNotes: Phase 1 crossover pharmacokinetic study of tablet and capsule formulations, single oral dose
# Format: in vivo, human
# conditionParameters: male, human, plasma, oral; upon administration of about 20 mg of Compound A (protocol of Section 6.5.1); read-out: AUC∞
# Procedure: Certain formulations provided herein were evaluated in a Phase 1, open-label, randomized, crossover study. […] For each period, serial blood samples were collected before dosing (zero hour) and at 0.5, 1, 1.5, 2, 2.5, 3, 4, 6, 8, 12, 24, 48, 72, and 96 hours after dosing. Plasma concentrations of Compound A were determined for determining PK parameters, such as […], AUC0-∞, Cmax, Tmax, t1/2, CL/F, and Vz/F for Compound A. Plasma PK parameters were calculated using non compartmental methods. […]
experimentalReadout: AUC(0-inf)
Number plus unit, in that order.

Request: Given the entry CC(C)(O)c1ccc(-c2cnc3c(n2)N([C@H]2CC[C@H](O)CC2)C(=O)CN3)cn1 [O-Desmethyl metabolite] , report its measured AUC(0-inf).
Response: 11900 ng·h/mL

====

# experimentNotes: Pharmacokinetics of the metabolite produced in vivo after administration of 7.5-60 mg Compound A
# conditionParameters: human, 15 mg, day 1 of administration of about 15 mg of Compound A, read-out: AUC0-24
experimentalReadout: AUC(0-t) (ng·h/mL)
Number only, in ng·h/mL; omit the unit.

Request: Given the entry CC(C)(O)c1ccc(-c2cnc3c(n2)N([C@H]2CC[C@H](O)CC2)C(=O)CN3)cn1 [O-Desmethyl metabolite] , report its measured AUC(0-t).
Response: 3830

====

Give AUC(0-t) for every item shown.
# experimentNotes: Phase 1 food effect study (Part 2), single 20-mg oral dose of Compound A tablet, fed vs fasted
# Assay type: in vivo, human
# conditionParameters: male, human, plasma, po, 20 mg, Fed (n = 11, high fat meal), single 20-mg oral dose of Compound A tablet; geometric mean; read-out: AUC0-24
Number only, in ng·h/mL; omit the unit.

Request: Given the entry `CO[C@H]1CC[C@H](N2C(=O)CNc3ncc(-c4ccc(C(C)(C)O)nc4)nc32)CC1` , report its measured AUC(0-t).
Response: 1130

Request: Now try CC(C)(O)c1ccc(-c2cnc3c(n2)N([C@H]2CC[C@H](O)CC2)C(=O)CN3)cn1 [O-Desmethyl metabolite] .
Response: 6270
